Reported inhibition (INH) values follow for various molecules
Biological target: Voltage-gated inwardly rectifying potassium channel KCNH2 (Homo sapiens, UniProt Q12809)
Sequence (Q12809 whole entry): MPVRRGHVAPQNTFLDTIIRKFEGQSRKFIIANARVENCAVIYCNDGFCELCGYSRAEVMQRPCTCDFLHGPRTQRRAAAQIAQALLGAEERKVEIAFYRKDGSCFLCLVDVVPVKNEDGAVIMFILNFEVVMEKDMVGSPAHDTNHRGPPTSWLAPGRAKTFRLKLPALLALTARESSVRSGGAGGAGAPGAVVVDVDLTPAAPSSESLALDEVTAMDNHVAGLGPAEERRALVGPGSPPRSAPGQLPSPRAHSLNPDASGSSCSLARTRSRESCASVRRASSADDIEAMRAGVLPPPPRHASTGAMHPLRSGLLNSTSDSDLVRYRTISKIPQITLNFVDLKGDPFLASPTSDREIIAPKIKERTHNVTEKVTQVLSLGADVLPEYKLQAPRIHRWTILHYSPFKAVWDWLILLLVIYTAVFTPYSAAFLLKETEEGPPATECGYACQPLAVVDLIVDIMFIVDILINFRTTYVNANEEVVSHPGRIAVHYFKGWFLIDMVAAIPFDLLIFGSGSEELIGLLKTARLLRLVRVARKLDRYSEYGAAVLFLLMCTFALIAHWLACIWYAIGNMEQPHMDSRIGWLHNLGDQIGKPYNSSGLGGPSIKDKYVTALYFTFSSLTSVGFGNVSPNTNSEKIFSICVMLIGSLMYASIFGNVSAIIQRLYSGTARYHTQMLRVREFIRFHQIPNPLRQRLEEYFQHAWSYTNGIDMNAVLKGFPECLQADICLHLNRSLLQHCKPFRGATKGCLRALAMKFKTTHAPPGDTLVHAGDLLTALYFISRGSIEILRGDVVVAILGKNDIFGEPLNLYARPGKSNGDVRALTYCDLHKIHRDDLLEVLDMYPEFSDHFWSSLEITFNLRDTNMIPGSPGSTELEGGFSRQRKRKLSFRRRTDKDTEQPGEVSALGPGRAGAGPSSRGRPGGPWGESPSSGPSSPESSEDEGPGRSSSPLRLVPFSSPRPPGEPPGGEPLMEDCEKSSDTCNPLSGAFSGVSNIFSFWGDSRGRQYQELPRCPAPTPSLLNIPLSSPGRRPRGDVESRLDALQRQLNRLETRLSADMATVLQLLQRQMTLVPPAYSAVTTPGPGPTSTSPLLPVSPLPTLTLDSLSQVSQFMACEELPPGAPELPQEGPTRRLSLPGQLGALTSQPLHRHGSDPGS
Assay: Inhibition of human ERG

molecule: CCC(C)n1ncn(-c2ccc(N3CCN(c4ccc(OCC5COC(Cn6cncn6)(c6ccc(Cl)cc6Cl)O5)cc4)CC3)cc2)c1=O (stereo unspecified)
inhibition (INH): < 1%
--
molecule: C[C@@]1(c2ccc(Cl)cc2Cl)OC[C@@H](COc2ccc(N3CCN(c4ccc(NC(=O)NN)cc4)CC3)cc2)O1
inhibition (INH): 2.2%
--
molecule: C[C@]1(c2ccc(Cl)cc2Cl)OC[C@@H](COc2ccc(N3CCN(c4ccc(NC(=O)c5cccc(O)c5)cc4)CC3)cc2)O1
inhibition (INH): < 1%
--
molecule: C[C@@]1(c2ccc(Cl)cc2Cl)OC[C@@H](COc2ccc(N3CCN(c4ccc(NC(=O)c5cccc(O)c5)cc4)CC3)cc2)O1
inhibition (INH): 1.2%
--
molecule: C[C@]1(c2ccc(Cl)cc2Cl)OC[C@@H](COc2ccc(N3CCN(c4ccc(NC(=O)c5cccnc5)cc4)CC3)cc2)O1
inhibition (INH): < 1%

Ask: What does the data say about its inhibition (INH)? Entry: `CC(=O)c1cccc(C(=O)Nc2ccc(N3CCN(c4ccc(OC[C@@H]5CO[C@](C)(c6ccc(Cl)cc6Cl)O5)cc4)CC3)cc2)c1`
Result: < 1%

---

Items are presented alongside their recorded t1/2.
Test: Half life in human liver microsomes at 1 uM by UPLC-MS/MS analysis
Type: ADME, Microsome
Just the number please, in min, no unit attached.

smi: CC(=O)c1cccc(C(=O)Nc2ccc(N3CCN(c4ccc(OC[C@@H]5CO[C@](C)(c6ccc(Cl)cc6Cl)O5)cc4)CC3)cc2)c1
unit-label: min
t1/2: 11.4
//
smi: C[C@@]1(c2ccc(Cl)cc2Cl)OC[C@@H](COc2ccc(N3CCN(c4ccc(NC(=O)c5cccnc5)cc4)CC3)cc2)O1
unit-label: min
t1/2: 59.9
//
smi: C[C@]1(c2ccc(Cl)cc2Cl)OC[C@@H](COc2ccc(N3CCN(c4ccc(NC(=O)c5cccc(O)c5)cc4)CC3)cc2)O1
unit-label: min
t1/2: 19.9
//
smi: C[C@@]1(c2ccc(Cl)cc2Cl)OC[C@@H](COc2ccc(N3CCN(c4ccc(NC(=O)NN)cc4)CC3)cc2)O1
unit-label: min
t1/2: 20.1
//
smi: C[C@]1(c2ccc(Cl)cc2Cl)OC[C@@H](COc2ccc(N3CCN(c4ccc(NC(=O)NN)cc4)CC3)cc2)O1
unit-label: min
t1/2: 11.5

Could you now consider this next molecule?
Ask: Bench note: what t1/2 did `C[C@]1(c2ccc(Cl)cc2Cl)OC[C@@H](COc2ccc(N3CCN(c4ccc(NC(=O)c5cccnc5)cc4)CC3)cc2)O1` show?
Result: 8.9

---

Recorded solubility kinetic values for a group of molecules are listed next.
Experiment: Kinetic solubility of the compound in PBS at pH 7.4 by UPLC-MS/MS analysis
Assay type: physicochemical
Settings: read-out: Kinetic_solubility
Give just the numeric value; nM need not be written.

Below, each entry is followed by its recorded solubility kinetic result.
molecule: CC[C@@H](C)n1ncn(-c2ccc(N3CCN(c4ccc(OC[C@@H]5CO[C@@](C)(c6ccc(Cl)cc6Cl)O5)cc4)CC3)cc2)c1=O (relative stereo)
experimental-readout: solubility kinetic
observed-measurement: 1560
//
molecule: C[C@]1(c2ccc(Cl)cc2Cl)OC[C@@H](COc2ccc(N3CCN(c4ccc(NC(=O)c5cccnc5)cc4)CC3)cc2)O1
experimental-readout: solubility kinetic
observed-measurement: 6.9
//
molecule: CC[C@@H](C)n1ncn(-c2ccc(N3CCN(c4ccc(OC[C@@H]5CO[C@](C)(c6ccc(Cl)cc6Cl)O5)cc4)CC3)cc2)c1=O (relative stereo)
experimental-readout: solubility kinetic
observed-measurement: 800
//
molecule: C[C@]1(c2ccc(Cl)cc2Cl)OC[C@@H](COc2ccc(N3CCN(c4ccc(NC(=O)NN)cc4)CC3)cc2)O1
experimental-readout: solubility kinetic
observed-measurement: 1.4
//
molecule: CC(=O)c1cccc(C(=O)Nc2ccc(N3CCN(c4ccc(OC[C@@H]5CO[C@](C)(c6ccc(Cl)cc6Cl)O5)cc4)CC3)cc2)c1
experimental-readout: solubility kinetic
observed-measurement: 1.4
//
molecule: C[C@@]1(c2ccc(Cl)cc2Cl)OC[C@@H](COc2ccc(N3CCN(c4ccc(NC(=O)NN)cc4)CC3)cc2)O1
experimental-readout: solubility kinetic
observed-measurement: 9.3
//
molecule: C[C@]1(c2ccc(Cl)cc2Cl)OC[C@@H](COc2ccc(N3CCN(c4ccc(NC(=O)c5cccc(O)c5)cc4)CC3)cc2)O1
experimental-readout: solubility kinetic
observed-measurement: 1.6
//
molecule: C[C@@]1(c2ccc(Cl)cc2Cl)OC[C@@H](COc2ccc(N3CCN(c4ccc(NC(=O)c5cccc(O)c5)cc4)CC3)cc2)O1
experimental-readout: solubility kinetic
observed-measurement: 1.4

Below: the item to evaluate.
Ask: What does the record list as solubility kinetic for `C[C@@]1(c2ccc(Cl)cc2Cl)OC[C@@H](COc2ccc(N3CCN(c4ccc(NC(=O)c5cccnc5)cc4)CC3)cc2)O1` ?
Result: 4.2

---

Molecular target: Protein smoothened (Mus musculus, UniProt P56726)
Sequence (P56726 whole entry): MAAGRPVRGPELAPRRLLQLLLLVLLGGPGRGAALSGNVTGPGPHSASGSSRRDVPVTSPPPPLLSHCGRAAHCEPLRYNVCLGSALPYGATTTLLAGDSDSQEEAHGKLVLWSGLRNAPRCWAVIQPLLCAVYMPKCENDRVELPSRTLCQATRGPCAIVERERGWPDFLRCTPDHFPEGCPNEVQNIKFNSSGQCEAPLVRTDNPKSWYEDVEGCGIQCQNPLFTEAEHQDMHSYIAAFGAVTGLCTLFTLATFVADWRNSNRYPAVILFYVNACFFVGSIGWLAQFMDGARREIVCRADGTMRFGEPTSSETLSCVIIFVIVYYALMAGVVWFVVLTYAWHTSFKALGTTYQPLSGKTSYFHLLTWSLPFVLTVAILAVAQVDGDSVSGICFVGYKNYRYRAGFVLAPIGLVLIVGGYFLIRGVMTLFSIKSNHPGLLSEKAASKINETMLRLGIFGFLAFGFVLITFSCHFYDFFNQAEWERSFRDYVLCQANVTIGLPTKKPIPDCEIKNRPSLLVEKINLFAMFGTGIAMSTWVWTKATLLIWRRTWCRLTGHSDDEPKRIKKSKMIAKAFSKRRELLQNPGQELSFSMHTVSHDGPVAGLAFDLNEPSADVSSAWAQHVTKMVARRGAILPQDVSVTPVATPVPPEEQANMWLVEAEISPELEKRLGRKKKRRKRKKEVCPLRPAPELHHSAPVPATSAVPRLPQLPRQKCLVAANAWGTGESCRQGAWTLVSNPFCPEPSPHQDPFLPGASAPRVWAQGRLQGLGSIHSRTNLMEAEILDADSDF
Assay: Inhibition of smo-mediated hedgehog signaling pathway in mouse ASZ001 cells assessed as decrease in Gli1 mRNA expression after 48 hrs by qPCR method
pIC50: −log10 of the molar value.
experimental-readout: pIC50

In the examples that follow, each entry is paired with its recorded pIC50.
smi: C[C@]1(c2ccc(Cl)cc2Cl)OC[C@@H](COc2ccc(N3CCN(c4ccc(-n5cn[nH]c5=O)cc4)CC3)cc2)O1
pIC50: 6.68
//
smi: C[C@]1(c2ccc(Cl)cc2Cl)OC[C@@H](COc2ccc(N3CCN(c4ccc(NC(=O)c5ccsc5)cc4)CC3)cc2)O1
pIC50: < 5.00

Attention now turns to another entry.
Ask: Name the recorded pIC50 for `C[C@]1(c2ccc(Cl)cc2Cl)OC[C@@H](COc2ccc(N3CCN(c4ccc(NC(=O)c5cccc(Cl)c5)cc4)CC3)cc2)O1` .
Result: < 5.00

---

Readings of IC50 for the listed compounds
Molecular target: Protein smoothened (Mus musculus, UniProt P56726)
Experiment: Inhibition of smo-mediated hedgehog signaling pathway in mouse ASZ001 cells assessed as decrease in Gli1 mRNA expression after 48 hrs by qPCR method
Express it in µM; write the number only.

smi: C[C@]1(c2ccc(Cl)cc2Cl)OC[C@@H](COc2ccc(N3CCN(c4ccc(NC(=O)c5ccccn5)cc4)CC3)cc2)O1
observed-measurement: 3.9

Let us move to another entry and its IC50.
Ask: Recorded IC50 for `C[C@]1(c2ccc(Cl)cc2Cl)OC[C@@H](COc2ccc(N3CCN(c4ccc(NC(=O)c5ccccc5O)cc4)CC3)cc2)O1` , please?
Result: 2.2

---

Target: Cytochrome P450 3A4 (Homo sapiens)
Sequence (P08684 whole entry): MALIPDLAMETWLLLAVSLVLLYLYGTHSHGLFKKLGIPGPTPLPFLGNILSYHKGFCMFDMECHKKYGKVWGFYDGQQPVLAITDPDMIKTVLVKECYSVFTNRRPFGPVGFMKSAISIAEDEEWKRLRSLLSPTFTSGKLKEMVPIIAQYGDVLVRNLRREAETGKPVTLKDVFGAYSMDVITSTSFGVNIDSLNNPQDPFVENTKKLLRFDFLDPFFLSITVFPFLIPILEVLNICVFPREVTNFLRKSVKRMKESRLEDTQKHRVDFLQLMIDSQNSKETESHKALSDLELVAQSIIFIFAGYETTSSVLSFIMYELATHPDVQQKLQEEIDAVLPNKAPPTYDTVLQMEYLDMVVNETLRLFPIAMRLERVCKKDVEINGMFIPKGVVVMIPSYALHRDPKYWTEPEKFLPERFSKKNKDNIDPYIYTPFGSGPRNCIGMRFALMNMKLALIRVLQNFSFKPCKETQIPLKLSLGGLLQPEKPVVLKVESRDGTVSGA
Experiment: Inhibition of CYP3A4 (unknown origin) using midazolam as substrate by UPLC-MS/MS analysis
Assay type: ADME
As shown below, each of these compounds has a reported IC50 value.

compound: C[C@]1(c2ccc(Cl)cc2Cl)OC[C@@H](COc2ccc(N3CCN(c4ccc(NC(=O)NN)cc4)CC3)cc2)O1
observed-measurement: > 30 µM

Ask: For `C[C@@]1(c2ccc(Cl)cc2Cl)OC[C@@H](COc2ccc(N3CCN(c4ccc(NC(=O)NN)cc4)CC3)cc2)O1` , what is its reported IC50?
Result: > 30 µM

Ask: # input compound: `C[C@]1(c2ccc(Cl)cc2Cl)OC[C@@H](COc2ccc(N3CCN(c4ccc(NC(=O)c5cccnc5)cc4)CC3)cc2)O1` ; wanted: its IC50
Result: > 20 µM

Ask: Query: IC50; subject: `CC(=O)c1cccc(C(=O)Nc2ccc(N3CCN(c4ccc(OC[C@@H]5CO[C@](C)(c6ccc(Cl)cc6Cl)O5)cc4)CC3)cc2)c1`
Result: > 30 µM

Ask: Which IC50 value belongs to `C[C@@]1(c2ccc(Cl)cc2Cl)OC[C@@H](COc2ccc(N3CCN(c4ccc(NC(=O)c5cccc(O)c5)cc4)CC3)cc2)O1` ?
Result: > 30 µM

Ask: Please report the recorded IC50 for `C[C@@]1(c2ccc(Cl)cc2Cl)OC[C@@H](COc2ccc(N3CCN(c4ccc(NC(=O)c5cccnc5)cc4)CC3)cc2)O1` .
Result: > 30 µM

Ask: Consider the compound CC[C@@H](C)n1ncn(-c2ccc(N3CCN(c4ccc(OC[C@@H]5CO[C@@](C)(c6ccc(Cl)cc6Cl)O5)cc4)CC3)cc2)c1=O (relative stereo) and give its measured IC50.
Result: 1.02 µM

Ask: Record request: IC50 value, item `C[C@]1(c2ccc(Cl)cc2Cl)OC[C@@H](COc2ccc(N3CCN(c4ccc(NC(=O)c5cccc(O)c5)cc4)CC3)cc2)O1`
Result: 11.4 µM

Ask: Recorded IC50 for CC[C@@H](C)n1ncn(-c2ccc(N3CCN(c4ccc(OC[C@@H]5CO[C@](C)(c6ccc(Cl)cc6Cl)O5)cc4)CC3)cc2)c1=O (relative stereo) , please?
Result: > 20 µM
